assay: xn = mol fraction of the nth substance listed, in the solute-free solvent; settings: 283.15 K; x2 = 0.4117
attribute measured: solubility (g/100 g solution)

| compound | reading |
| --- | --- |
| Nc1cccc2ccncc12 + CCCO + O | 0.822 |
| Nc1cccc2ccncc12 + CC(C)O + O | 0.687 |
| CN1CCC(N(Cc2cccs2)c2ccccc2)CC1 + CCCO + O | 1.9 |
| CN1CCC(N(Cc2cccs2)c2ccccc2)CC1 + CC(C)O + O | 1.51 |
| Cc1ccc2cc(Br)ccc2n1 + CC(C)O + O | 0.642 |

###

experiment: xn = mol fraction of the nth substance listed, in the solute-free solvent; settings: 318.15 K; x2 = 0.3103
Answer No if solubility (g/100 g solution) is under 2, and Yes if it is 2 or more.

| molecule | class name |
| --- | --- |
| Nc1cccc2ccncc12 + CCCO + O | Yes |
| CN1CCC(N(Cc2cccs2)c2ccccc2)CC1 + CCCO + O | Yes |
| Nc1cccc2ccncc12 + CC(C)O + O | No |
| CN1CCC(N(Cc2cccs2)c2ccccc2)CC1 + CC(C)O + O | Yes |
| Cc1ccc2cc(Br)ccc2n1 + CC(C)O + O | No |

###

Reported solubility (g/100 g solution) values are given for each entry in this list.
assay: xn = mol fraction of the nth substance listed, in the solute-free solvent; details: 323.15 K; x2 = 0.7297
attribute measured: solubility (g/100 g solution)

| molecule | reading |
| --- | --- |
| CN1CCC(N(Cc2cccs2)c2ccccc2)CC1 + CCCO + O | 4.77 |
| CN1CCC(N(Cc2cccs2)c2ccccc2)CC1 + CC(C)O + O | 3.74 |
| Nc1cccc2ccncc12 + CCCO + O | 3.54 |
| Cc1ccc2cc(Br)ccc2n1 + CC(C)O + O | 2.78 |
| Nc1cccc2ccncc12 + CC(C)O + O | 2.94 |

###

experiment: xn = mol fraction of the nth substance listed, in the solute-free solvent; settings: 308.15 K; x2 = 0.06974
attribute measured: solubility (g/100 g solution)

| compound | attribute measured | reading |
| --- | --- | --- |
| CN1CCC(N(Cc2cccs2)c2ccccc2)CC1 + CCCO + O | solubility (g/100 g solution) | 0.632 |
| Nc1cccc2ccncc12 + CC(C)O + O | solubility (g/100 g solution) | 0.323 |
| Nc1cccc2ccncc12 + CCCO + O | solubility (g/100 g solution) | 0.393 |
| Cc1ccc2cc(Br)ccc2n1 + CC(C)O + O | solubility (g/100 g solution) | 0.312 |
| CN1CCC(N(Cc2cccs2)c2ccccc2)CC1 + CC(C)O + O | solubility (g/100 g solution) | 0.508 |

###

experiment: xn = mol fraction of the nth substance listed, in the solute-free solvent; conditions: 293.15 K; x2 = 0.06974
Reported solubility (g/100 g solution) values are given for each entry in this list.

| compound | solubility (g/100 g solution) |
| --- | --- |
| CN1CCC(N(Cc2cccs2)c2ccccc2)CC1 + CCCO + O | 0.492 |
| Nc1cccc2ccncc12 + CC(C)O + O | 0.215 |
| CN1CCC(N(Cc2cccs2)c2ccccc2)CC1 + CC(C)O + O | 0.394 |
| Nc1cccc2ccncc12 + CCCO + O | 0.263 |
